Test system: erythrocyte suspensions of human blood
Assay: Hemolytic activity, hemoglobin release
Type: cell-based
Settings: peptide 50 μM (table prints 50 µM); human blood erythrocytes 5% v/v; absorbance 540 nm; percentage compared to melittin; three replicates
Peptide text beside a SMILES is read from it.
Threshold rule: Hemolysis (%) at 50 µM greater than or equal to 6% is Fulfilled; below that, Not fulfilled.

A selection of reference data follows.
molecule="CC(C)C[C@@H]1NC(=O)[C@H](CCCCN)NC(=O)[C@H](CCCCN)NC(=O)[C@H](CCCCN)NC(=O)[C@H](CCC(N)=O)NC(=O)[C@H](CCCCN)NC(=O)[C@H](CC(C)C)NC(=O)[C@H](CC(C)C)NC(=O)[C@H](Cc2c[nH]c3ccccc23)NC(=O)[C@H](CCCCN)NC1=O [BPC102W, c(KKKLKWLLKQ)] (cyclo(KKKLKWLLKQ))" group_label=Fulfilled
molecule="CC(C)C[C@@H]1NC(=O)[C@H](CCCCN)NC(=O)[C@H](CCCCN)NC(=O)[C@H](CCC(N)=O)NC(=O)[C@H](CCCCN)NC(=O)[C@H](CCCCN)NC(=O)[C@H](CCCCN)NC(=O)[C@H](Cc2c[nH]c3ccccc23)NC(=O)[C@H](CC(C)C)NC(=O)[C@H](CC(C)C)NC1=O [BPC148W, c(KKLLLWKKKQ)] (cyclo(KKKQKKLLLW))" group_label="Not fulfilled"
molecule="CC(C)C[C@@H]1NC(=O)[C@H](CCCCN)NC(=O)[C@H](CCC(N)=O)NC(=O)[C@H](CCCCN)NC(=O)[C@H](CCCCN)NC(=O)[C@H](CCCCN)NC(=O)[C@H](Cc2c[nH]c3ccccc23)NC(=O)[C@H](CC(C)C)NC(=O)[C@H](CC(C)C)NC(=O)[C@H](CCCCN)NC1=O [BPC150W, c(KLKLLWKKKQ)] (cyclo(KKKQKLKLLW))" group_label=Fulfilled

(Q) Determine whether measured Hemolysis (%) at 50 µM meets or exceeds 6% for CC(C)C[C@@H]1NC(=O)[C@H](CCCCN)NC(=O)[C@H](CCCCN)NC(=O)[C@H](Cc2c[nH]c3ccccc23)NC(=O)[C@H](CCCCN)NC(=O)[C@H](CC(C)C)NC(=O)[C@H](CCCCN)NC(=O)[C@H](CCCCN)NC(=O)[C@H](CCCCN)NC(=O)[C@H](CCC(N)=O)NC1=O [BPC186W, c(KKKLKWKKLQ)] (cyclo(KKKLKWKKLQ))
(A) Not fulfilled

(Q) Determine whether measured Hemolysis (%) at 50 µM meets or exceeds 6% for CC(C)C[C@@H]1NC(=O)[C@H](CCC(N)=O)NC(=O)[C@H](CC(C)C)NC(=O)[C@H](CCCCN)NC(=O)[C@H](CCCCN)NC(=O)[C@H](Cc2c[nH]c3ccccc23)NC(=O)[C@H](CC(C)C)NC(=O)[C@H](CCCCN)NC(=O)[C@H](CCCCN)NC(=O)[C@H](CCCCN)NC1=O [BPC086W, c(LKKKLWKKLQ)] (cyclo(KKKLWKKLQL))
(A) Not fulfilled
